# key: entry, value: Percent Effect
- System: Wolbachia pipientis
- test.method.notes: Anti-Wolbachia Cell-Based Screen
- Assay type: functional
- Set-up: scale not given: in the data most compounds retested in dose-response had high values
- condition.parameters: 5 µM
Out of some 48,000 compounds screened, about 13,000 (27%) showed an effect of 50% or more. The list shows a part of the results.
All answers are understood in %, so give the number only.

Known Percent Effect results, listed for orientation:
{"compound": "Cc1nn(C)c(Cl)c1C1CCCN1CC(=O)NCc1ccccn1 (configuration not stated)", "Percent Effect [%]": -3.313}
{"compound": "Cc1ccsc1C(=O)N1CC2CC1(C(=O)NCc1ccco1)C2", "Percent Effect [%]": -21.25}
{"compound": "COc1c(C2CCCN2CC(=O)Nc2cc(C)no2)c(C)nn1C (configuration not stated)", "Percent Effect [%]": -8.496}

Request: Item under review: "O=C(Nc1ccnn1C1CCCC1)c1ccc(NC2CC2)nc1" . Reported Percent Effect?
Response: -4.734

Request: Item under review: "CCN(Cc1nccn1C)C(=O)c1ccc(NCC(C)C)nc1" . Reported Percent Effect?
Response: -32.37

Request: Item under review: Cc1nn(C)c(C)c1C1CCCN1CC(=O)NCc1ccccn1 (configuration not stated) . Reported Percent Effect?
Response: 103.7

* * *

- Test system: Wolbachia pipientis
- test.method.notes: Anti-Wolbachia Cell-Based Screen
- Assay type: functional
- Design: scale not given: in the data most compounds retested in dose-response had high values
- condition.parameters: 5 µM
The whole screen tested about 48,000 compounds, of which about 13,000 (27%) showed an effect of 50% or more. The list shows a part of the results.
reported.endpoint: Percent Effect (%)
All answers are understood in %, so give the number only.

{"molecule": "CC1CCN(c2ccc(CNC(=O)NCCn3ccnc3)cn2)CC1", "reported.endpoint": "Percent Effect", "reading.unit": "%", "endpoint.result": 0.6283}
{"molecule": "OC1CCN(C2CCN(c3ccc(Cn4ccnc4)cn3)CC2)CC1", "reported.endpoint": "Percent Effect", "reading.unit": "%", "endpoint.result": 89.01}
{"molecule": "c1csc(-c2cc(CN3CCN(c4cnccn4)CC3)no2)c1", "reported.endpoint": "Percent Effect", "reading.unit": "%", "endpoint.result": -0.0676}
{"molecule": "Fc1ccc(N2CCCN(c3ccc(Cn4ccnc4)cn3)CC2)cc1", "reported.endpoint": "Percent Effect", "reading.unit": "%", "endpoint.result": 119.2}

Request: Item under review: CC(C)N1CCCC(CN(C)c2ccc(Cn3ccnc3)cn2)C1 (stereo unspecified) . Reported Percent Effect?
Response: -1.53

Request: Item under review: "Cn1nc(Cn2ccnc2)c2c1CN(Cc1ccoc1)C2.O=C(O)C(F)(F)F.O=C(O)C(F)(F)F" . Reported Percent Effect?
Response: -6.284

* * *

- Tested on: Wolbachia pipientis
- test.method.notes: Anti-Wolbachia Cell-Based Screen
- Type: functional
- Parameters: scale not given: in the data most compounds retested in dose-response had high values
- condition.parameters: 5 µM
Among all 48,000 compounds or so, about 13,000 (27%) showed an effect of 50% or more. Some of the results follow.
reported.endpoint: Percent Effect (%)
All answers are understood in %, so give the number only.

Request: Item under review: O=C(N1CCCCC1)N1CCN(CC(O)c2ccc(F)cc2)CC1 (configuration not stated) . Reported Percent Effect?
Response: -12.83

Request: Item under review: CC(C)C(=O)N1CCCC([C@@H]2C[C@H](C(F)F)n3ncnc3N2)C1 (some centres not stated) . Reported Percent Effect?
Response: 140.3

Request: Item under review: "CC(C)C(=O)N1CCC([C@@H]2C[C@H](C(F)F)n3ncnc3N2)CC1" . Reported Percent Effect?
Response: 105.2

Request: Item under review: "Cn1nnc(C2(NC(=O)c3ccccc3)CCCC2)n1" . Reported Percent Effect?
Response: -16.42

Request: Item under review: "CCn1cc(NC(=O)C2CCN(CC(=O)NC(C)(C)CC)CC2)cn1" . Reported Percent Effect?
Response: 91.29

* * *

# key: entry, value: Percent Effect
- Tested on: Wolbachia pipientis
- test.method.notes: Anti-Wolbachia Cell-Based Screen
- Type: functional
- Set-up: scale not given: in the data most compounds retested in dose-response had high values
- condition.parameters: 5 µM
In all, about 48,000 compounds went through this assay and about 13,000 (27%) showed an effect of 50% or more. This is one part of the list.
All answers are understood in %, so give the number only.

Known Percent Effect results, listed for orientation:
{"chemical.smiles": "Cn1nccc1-c1cnc2n1CCNC21CCN(C(=O)C2(C)CC2)CC1", "Percent Effect, %": 92.03}
{"chemical.smiles": "COc1ccc(-c2cnc3n2CCNC32CCN(S(C)(=O)=O)CC2)cc1", "Percent Effect, %": -5.963}
{"chemical.smiles": "Cn1cc(-c2cnc3n2CCC32CCN(S(C)(=O)=O)CC2)cn1", "Percent Effect, %": 7.243}
{"chemical.smiles": "Cn1nccc1-c1cnc2n1CCC21CCN(C(=O)C2(C)CC2)CC1", "Percent Effect, %": 98.02}

// next item, Percent Effect requested
Request: Item under review: "CS(=O)(=O)N1CCC2(CC1)NCCn1c(-c3ccccc3)cnc12.O=C(O)C(F)(F)F.O=C(O)C(F)(F)F" . Reported Percent Effect?
Response: -8.058

* * *

- System: Wolbachia pipientis
- test.method.notes: Anti-Wolbachia Cell-Based Screen
- Format: functional
- Design: scale not given: in the data most compounds retested in dose-response had high values
- condition.parameters: 5 µM
In all, about 48,000 compounds went through this assay and about 13,000 (27%) showed an effect of 50% or more. Some of the results follow.
Rule: Percent Effect below 10% gives t, anything at or above gives f.

# example entries with known answers
{"compound": "Cc1cnn(CC2CCCN2c2nn3cc(C)nc3s2)c1 (configuration not stated)", "assay.system": "Wolbachia pipientis", "label": "t"}
{"compound": "Cc1cn2nc(N3CCCC3C(=O)N3CCN(C)CC3)sc2n1 (configuration not stated)", "assay.system": "Wolbachia pipientis", "label": "t"}
{"compound": "Cc1cn2nc(N3CCCCC3Cn3cccn3)sc2n1 (configuration not stated)", "assay.system": "Wolbachia pipientis", "label": "f"}
{"compound": "Cc1cn2nc(N3CCCC3Cn3cccn3)sc2n1 (configuration not stated)", "assay.system": "Wolbachia pipientis", "label": "f"}
{"compound": "CC(C)(C)c1cn2nc(N3CCCC3Cn3cncn3)sc2n1 (configuration not stated)", "assay.system": "Wolbachia pipientis", "label": "t"}

Request: Please determine if "CCS(=O)(=O)N1CCc2onc(COc3ccccn3)c2C1.O=C(O)C(F)(F)F" is below 10% in terms of Percent Effect.
Response: t

Request: Please determine if "Cc1ccsc1C(=O)Nc1cc(Br)c(=O)n(C)c1" is below 10% in terms of Percent Effect.
Response: t

Request: Please determine if "CN(C)c1cnnc(N2CCN(C(=O)CCC3CCCCC3)CC2)c1" is below 10% in terms of Percent Effect.
Response: t

Request: Please determine if CC(C)(C)c1cn2nc(N3CCCC3Cn3cccn3)sc2n1 (configuration not stated) is below 10% in terms of Percent Effect.
Response: t

Request: Please determine if Cc1cn2nc(N3CCCC3Cn3nc(C)cc3C)sc2n1 (configuration not stated) is below 10% in terms of Percent Effect.
Response: t

Request: Please determine if Cc1cnn(CC2CCCCN2c2nn3cc(C)nc3s2)c1 (configuration not stated) is below 10% in terms of Percent Effect.
Response: f

Request: Please determine if "CCNc1ncc(C(=O)NCc2csc(-c3cnccn3)n2)cn1" is below 10% in terms of Percent Effect.
Response: t

* * *

# key: entry, value: Percent Effect
- Tested on: Wolbachia pipientis
- test.method.notes: Anti-Wolbachia Cell-Based Screen
- Assay type: functional
- Design: scale not given: in the data most compounds retested in dose-response had high values
- condition.parameters: 5 µM
The campaign covered roughly 48,000 compounds. About 13,000 (27%) showed an effect of 50% or more. The list shows a part of the results.
All answers are understood in %, so give the number only.

Known Percent Effect results, listed for orientation:
{"compound": "COc1cccc2c1OCC(C(=O)NCc1nc3c(s1)CCCC3)C2 (configuration not stated)", "assay.system": "Wolbachia pipientis", "reading.unit": "%", "Percent Effect": -11.26}
{"compound": "COc1ccccc1OCC(=O)NCC(O)(c1ccccc1)C1CC1 (configuration not stated)", "assay.system": "Wolbachia pipientis", "reading.unit": "%", "Percent Effect": -11.16}

Request: Item under review: "COc1cc(C(=O)O)cc(I)c1OCC(=O)NCCc1ccccc1" . Reported Percent Effect?
Response: 109.3

Request: Item under review: COc1cc(C(=O)O)ccc1OCC(=O)NC(C)c1ccc(F)cc1 (configuration not stated) . Reported Percent Effect?
Response: 2.572

Request: Item under review: c1ccc(Cn2ccnc2CN2CCCC2c2noc(C3CC3)n2)cc1 (configuration not stated) . Reported Percent Effect?
Response: 9.89

Request: Item under review: O=C(NCC1(N2CCOCC2)CCSC1)Nc1ccccn1 (configuration not stated) . Reported Percent Effect?
Response: 27.17

Request: Item under review: COCC(C)(O)CNC(=O)COc1ccccc1OC (configuration not stated) . Reported Percent Effect?
Response: 1.741

Request: Item under review: "COc1ccc2nnc(CCC(=O)Nc3nc4c(s3)CCC4)n2n1" . Reported Percent Effect?
Response: 122.5

Request: Item under review: "COc1cc(C(=O)O)ccc1OCC(=O)NCCc1ccccc1" . Reported Percent Effect?
Response: 92.84
